- System: LOX IMVI
- Assay Procedure: NCI tumour cell line growth inhibition, 48 h
Active and inactive are the calls of the source. No stated cut-off is given here; in the data, active = GI50 up to about 1.1 µM and inactive = higher.
Quantity Measured: GI50

Examples from the recorded data:
[
  {
    "Molecule": "CC(C)(C)C1=C(Br)C(F)(C(C)(C)C)OP1(=O)c1ccccc1 (stereo unspecified)",
    "Target Desc": "LOX IMVI",
    "Quantity Measured": "GI50",
    "Experimental Result": "19.3 µM (inactive)"
  },
  {
    "Molecule": "O=c1[nH]c(=O)n(C2CC(O)C(CS)O2)cc1F (stereo unspecified)",
    "Target Desc": "LOX IMVI",
    "Quantity Measured": "GI50",
    "Experimental Result": "61.9 µM (inactive)"
  },
  {
    "Molecule": "COc1cccc(C(C#N)NNC(=O)c2c(Cl)c(Cl)c(Cl)c(Cl)c2-c2nc3cc(C(=O)c4ccccc4)ccc3[nH]2)c1O (stereo unspecified)",
    "Target Desc": "LOX IMVI",
    "Quantity Measured": "GI50",
    "Experimental Result": "5.19 µM (inactive)"
  },
  {
    "Molecule": "COC(=O)CCC(=O)Nc1cc(C)ccc1C",
    "Target Desc": "LOX IMVI",
    "Quantity Measured": "GI50",
    "Experimental Result": "> 100 µM (inactive)"
  },
  {
    "Molecule": "CCOC1CC2OC(=O)C1C=C2C(=O)OC (stereo unspecified)",
    "Target Desc": "LOX IMVI",
    "Quantity Measured": "GI50",
    "Experimental Result": "87.5 µM (inactive)"
  }
]

Next, consider the following molecule.
I'd like to know its GI50. The molecule in question is `CC(C)Oc1cc(O)c2c(c1)OCC=C2CCC(=O)O` 33.1 µM (inactive)

###

Examples of molecules with documented GI50 follow.
- Test system: LOX IMVI
- Assay Procedure: NCI tumour cell line growth inhibition, 48 h
Calls of active or inactive are those of the source. No stated cut-off is given here; in the data, active = GI50 up to about 1.1 µM and inactive = higher.

Study these solved cases before continuing.
[
  {
    "Molecule": "CN1C(CC(O)c2ccccc2)CCCC1CC(O)(c1ccccc1)c1ccccc1 (stereo unspecified)",
    "GI50": "20.3 µM (inactive)"
  },
  {
    "Molecule": "COc1ccc(C(c2ccc(OC)cc2)N2C(=O)CCC2C(=O)O)cc1 (stereo unspecified)",
    "GI50": "> 100 µM (inactive)"
  },
  {
    "Molecule": "CC12C(=O)CC(CC1=O)C2(C)C",
    "GI50": "> 100 µM (inactive)"
  },
  {
    "Molecule": "CC(=N/NC(=S)N1CCCCCC1)/C(C)=N\\NC(=S)N1CCCCCC1",
    "GI50": "> 10 µM (inactive)"
  }
]

Please report the recorded GI50 for `Cc1ccc(C(=O)N2CCCCC2)cc1/N=N/N(C)C` . > 100 µM (inactive)

Same question, `CN1CCc2c1nc(-c1ccccc1)c1c2N(C)CC1` this time 49 µM (inactive)

###

- System: SNB-19
- Assay Procedure: NCI tumour cell line growth inhibition, 48 h
Calls of active or inactive are those of the source. No stated cut-off is given here; in the data, active = GI50 up to about 1.1 µM and inactive = higher.
The reader will find reported GI50 values listed item by item below.

The examples below pair each entry with its known result.
[
  {
    "Structure As Smiles": "Nn1c(S)nnc1N/N=C1/C(=O)Nc2c(Cl)cc(Cl)cc21",
    "GI50": "76 µM (inactive)"
  },
  {
    "Structure As Smiles": "CCn1c(SCC(=O)NNC(=S)NC)nc2ccccc2c1=O",
    "GI50": "> 100 µM (inactive)"
  }
]

# input compound: `COc1cc(N(CCC#N)CCC#N)ccc1C(=N/NC(=O)c1cc(Br)ccc1O)/N=N/c1ccccc1` ; wanted: its GI50 32.1 µM (inactive)

Quick one: `O=C(c1ccc(F)cc1)c1cccc(C(=O)c2ccc(F)cc2)n1` 25.2 µM (inactive)

Can you handle `CCOP(=O)(OCC)Oc1c(OC)c2[nH]c(C(=O)OC)cc2c2c(C(=O)O)c[nH]c12` next? > 100 µM (inactive)
